Numbers sourced from the supplement of paper PMC10724198.

System: Saccharomyces cerevisiae
procedure-summary: protein stability index of tFT-peptide fusion (C-terminal peptide) (PSI (0-1 scale)); higher = more stable (slower turnover);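 further: PSI is a weighted mean of sequencing reads over stability bins, variants kept only with over 10 reads, mCherry proximal and sfGFP distal, peptide attached via GGGS linker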
experimental-setup: genetic background: cdc34-1; temperature: 37 C
property-measured: protein stability index
One number for each entry.

Take a look at these entries with their results.
monomer-sequence	protein stability index
VRIGCSLLFFLP	0.661
VVWFCGFFFVMV	0.386
IVVVVRLSPILG	0.293

For each of the items listed, what is its protein stability index?
1. SFFVCVRVFGCC
2. GGKTLSIFLRIS
3. HIVYCSSEQIKC
4. ISPCLVRLWYRI
5. IWIHSVGVECTS
6. QGRRKEKAVTLN
7. GIFYVRTIWSCG

[0.315, 0.611, 0.53, 0.462, 0.487, 0.652, 0.232]

###

Please go through the items and note down their protein stability index.
Test system: Saccharomyces cerevisiae
procedure-summary: protein stability index of tFT-peptide fusion (C-terminal peptide) (PSI (0-1 scale)); higher = more stable (slower turnover)
experimental-setup: genetic background: wild type; temperature: 37 C
Give bare numbers.

Take a look at these entries with their results.
monomer-sequence	assay-value
LVLCCGFWFRAV	0.501
SQKKKIKKYKET	0.208

Could you now look at the following sequence, please?
# input sequence: GQLIYQHIFILG ; wanted: its protein stability index
0.568

###

Test system: Saccharomyces cerevisiae
procedure-summary: protein stability index of tFT-peptide fusion (C-terminal peptide) (PSI (0-1 scale)); higher = more stable (slower turnover)
experimental-setup: genetic background: wild type; temperature: 30 C
Please go through the items and note down their protein stability index.
Numbers only.

monomer-sequence	target-system	protein stability index
PLPPLTPASPHP	Saccharomyces cerevisiae	0.72
GGRGFRGVLRSN	Saccharomyces cerevisiae	0.696
GGFNARVSPTRL	Saccharomyces cerevisiae	0.709

For each of the items listed, what is its protein stability index?
1. VSLGRRGDRGLC
2. LYTISAGEDELN

0.719
0.699

Give protein stability index (Saccharomyces cerevisiae) of the following sequence: PLPPLAPPHRSP
0.682

###

Please go through the items and note down their protein stability index.
Test system: Saccharomyces cerevisiae
procedure-summary: protein stability index of tFT-peptide fusion (C-terminal peptide) (PSI (0-1 scale)); higher = more stable (slower turnover)
experimental-setup: genetic background: wild type; temperature: 30 C
Give bare numbers.

monomer-sequence	target-system	protein stability index
PPPRPPHAPFSL	Saccharomyces cerevisiae	0.702
VVSAIISGLSIK	Saccharomyces cerevisiae	0.733
CPGNRQEMLKSR	Saccharomyces cerevisiae	0.676
GGGAIFDRLLCL	Saccharomyces cerevisiae	0.654
PRPHRLPPRPFH	Saccharomyces cerevisiae	0.692
PPAALPPSTLFS	Saccharomyces cerevisiae	0.673
PPHPQRANAPGH	Saccharomyces cerevisiae	0.662
LYTSPLPAAFQL	Saccharomyces cerevisiae	0.726

For each of the items listed, what is its protein stability index?
1. PPLALLLSPVPP
2. KINRTKTAPITR

0.688
0.724

###

Please go through the items and note down their protein stability index.
Tested on: Saccharomyces cerevisiae
procedure-summary: protein stability index of tFT-peptide fusion (C-terminal peptide) (PSI (0-1 scale)); higher = more stable (slower turnover)
experimental-setup: genetic background: wild type; temperature: 30 C
Give bare numbers.

monomer-sequence	protein stability index
RAKSTFRVHSHM	0.664
HLGHPSSRPSCL	0.72
LRHGLASYDHCG	0.681
PPLPFPSLPTPP	0.696
GKSESATLMVTV	0.697

For each of the items listed, what is its protein stability index?
1. FNETVLYIVPNG
2. LISGVCLRVKVG
3. VFFLAFYFYRCF
4. RALSLLSLLLNR
5. VGFCICISIMSF
6. GSLRLASAHGLV
7. INHNKNKTIIAL

0.639
0.346
0.262
0.696
0.213
0.729
0.655
